- Test system: Aspergillus oryzae
- measurement.description: Antimicrobial activity against Aspergillus oryzae MTCC 3782 at 20 ug after 48 hr by streak plate method
- Assay type: functional
- details: MTCC 3782, 48 h, read-out: IZ
readout: zone of inhibition at 20 µg/disc (mm)
API: value field is a number in mm; no unit string.

Requested field: zone of inhibition at 20 µg/disc. Item: C[C@@H]1[C@H](O)[C@@H](C)/C=C/C=C/C=C/C=C/C=C/C=C/C=C/[C@H](O[C@@H]2O[C@H](C)[C@@H](O)[C@H](N)[C@@H]2O)C[C@@H]2O[C@](O)(C[C@@H](O)C[C@@H](O)[C@H](O)CC[C@@H](O)C[C@@H](O)CC(=O)O[C@H]1C)C[C@H](O)[C@H]2C(=O)O
12

Next entry: O=C1c2ccccc2C(=O)N1CNc1ccccc1
7

Next entry: O=C1CCC(=O)N1C(Nc1ccccc1)c1ccccc1 (centres undefined)
3

Next entry: O=C1CCC(=O)N1C(Nc1ccccn1)c1ccccc1 (centres undefined)
12
